Molecular target: human PARP1 (Homo sapiens)
Construct: purchased Trevigen
Sequence (P09874 whole entry): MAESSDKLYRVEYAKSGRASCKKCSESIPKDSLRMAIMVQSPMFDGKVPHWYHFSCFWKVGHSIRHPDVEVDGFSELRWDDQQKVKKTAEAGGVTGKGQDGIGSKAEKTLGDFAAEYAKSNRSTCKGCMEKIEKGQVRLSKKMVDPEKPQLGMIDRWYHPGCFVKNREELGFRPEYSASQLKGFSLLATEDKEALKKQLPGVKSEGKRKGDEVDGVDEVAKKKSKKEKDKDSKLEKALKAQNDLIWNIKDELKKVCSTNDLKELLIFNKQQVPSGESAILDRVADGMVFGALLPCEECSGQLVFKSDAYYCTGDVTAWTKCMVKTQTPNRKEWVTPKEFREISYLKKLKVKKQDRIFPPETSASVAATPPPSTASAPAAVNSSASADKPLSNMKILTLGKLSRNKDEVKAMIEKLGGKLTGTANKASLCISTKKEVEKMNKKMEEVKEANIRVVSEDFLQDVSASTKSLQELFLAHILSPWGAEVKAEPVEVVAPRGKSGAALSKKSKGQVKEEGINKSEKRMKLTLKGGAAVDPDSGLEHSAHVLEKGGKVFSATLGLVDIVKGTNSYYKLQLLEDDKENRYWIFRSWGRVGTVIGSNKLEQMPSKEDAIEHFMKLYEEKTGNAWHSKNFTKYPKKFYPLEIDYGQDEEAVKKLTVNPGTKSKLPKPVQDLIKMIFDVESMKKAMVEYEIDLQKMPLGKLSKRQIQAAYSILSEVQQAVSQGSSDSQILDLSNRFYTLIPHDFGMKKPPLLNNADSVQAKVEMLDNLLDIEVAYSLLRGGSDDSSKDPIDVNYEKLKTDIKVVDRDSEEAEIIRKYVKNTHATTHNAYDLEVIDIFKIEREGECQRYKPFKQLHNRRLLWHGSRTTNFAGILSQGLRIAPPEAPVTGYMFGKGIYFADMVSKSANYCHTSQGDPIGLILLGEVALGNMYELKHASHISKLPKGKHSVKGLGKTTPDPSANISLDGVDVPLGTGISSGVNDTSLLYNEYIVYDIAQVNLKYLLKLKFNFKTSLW
Assay: PARP inhibitor assay (HT Fluorescent Homogeneous PARP Inhibition Assay Kit)
Format: biochemical
Settings: score
Kindly state L = PARP inhibition for each of the entries shown.

// below: answered compounds
• O=C(NCc1cccnc1)/C(=C\c1cccc(Oc2ccccc2)c1)S(=O)(=O)c1ccccc1 [Gr-7A] = 0
• [O-][n+]1onc2c3nsnc3c(Br)cc21 [O17] = 0
• CC(C)(C)c1ccc(OCC(=O)Nc2ccc3c4c(cccc24)C(=O)NC3=O)cc1 [O22] = 1

Record L = PARP inhibition for all entries; do not skip any.
1. Cc1cc(N)n(-c2ccccc2C(=O)O)n1 [Gr-6A]
2. COC(=O)CCc1sc2c(c1[N+](=O)[O-])NC(=O)CCC2 [O20]
3. CNC(=O)/C(C#N)=C/c1c(Oc2ccc(C(C)(C)C)cc2)nc2ccccn2c1=O [Gr-5D]
4. COc1cccc(/C=C2\CN(C)C/C(=C\c3cccc(OC)c3OC)C2=O)c1OC [O23]
5. O=C1NCCCc2cc(Cl)sc21 [O1]

1
0
0
0
1

###

Assign fold induction at 10 µM to each entry below.
System: FOXO3
Experiment: qPCR analysis of FOXO3-regulated genes
Assay type: cell-based, human
Conditions: Homo sapiens; fold change; qPCR; WI-38 cells; 10 μM, 24 hrs; read-out: Summary of effects on FOXO3-regulated genes: CAT
Numbers only.

Observe how each entry below is paired with its result.
- O=C(/C(=C/c1ccc(Cl)cc1)c1nc2ccccc2[nH]1)c1ccccc1: 1.37
- O=C(Nc1cccc(C(F)(F)F)c1)c1ccc([N+](=O)[O-])o1: 1.45
- O=C(Nc1cc(C(F)(F)F)ccc1Cl)c1ccc([N+](=O)[O-])o1: 1.4
- NS(=O)(=O)c1ccc(NC(=O)c2ccc([N+](=O)[O-])o2)cc1: 1.31
- CCCN1C/C(=C\c2ccc(F)cc2)C(=O)/C(=C/c2ccc(F)cc2)C1: 1.28

Give fold induction at 10 µM for each listed item.
1. COC(=O)CCc1sc2c(c1[N+](=O)[O-])NC(=O)CCC2
2. COc1ccc(C(=O)/C=C/c2ccc(F)cc2)c(OC)c1
3. Nc1ccccc1S(=O)(=O)Nc1cccc2cccnc12
4. CCc1ccccc1NC(=O)c1ccc([N+](=O)[O-])o1
5. O=[N+]([O-])c1ccccc1S(=O)(=O)Nc1cccc2cccnc12
6. O=C(c1ccc([N+](=O)[O-])o1)N1CCc2ccccc21
7. CCCC(=O)Nc1ccc(-c2cn3cccc(C)c3n2)cc1

[1.35, 1.26, 0.87, 1.44, 0.87, 1.33, 0.8]

###

For each record, write down the corresponding activity at 10 µM.
Test system: phosphorylated γH2A.X and TP53BP1
Test: DNA damage marker analysis (immuno-staining)
Details: Homo sapiens, WI-38, 24 h, read-out: Experiment 2, H2A.X-P DNA damage foci staining (under H2O2 stress treatment), at 10 uM
One number for each entry, in %.

Below, 2 compounds whose answers are already recorded.
* O=C(NCc1cccnc1)/C(=C\c1cccc(Oc2ccccc2)c1)S(=O)(=O)c1ccccc1 | 113
* O=C(c1ccc([N+](=O)[O-])o1)N1CCc2ccccc21 | 152

Next item in the queue.
What value of activity at 10 µM on phosphorylated γH2A.X and TP53BP1 does "Cc1ccc(S(=O)(=O)Nc2cccc3cccnc23)cc1" have?
130

###

Test system: WI-38 cells
Settings: no H2O2 stress, 10 uM; negative control 0.41% ± 0.23%
Procedure: WI-38 cells were seeded on 384-well plates for 24 hrs and then incubated with small molecules for 24 hrs. […] Images were collected on an INCell Analyzer 2000 (GE) and analyzed with the Developer software.
parameterMeasured: Percentage of propidium iodide-positive dead cells (no H2O2 stress treatment), at 10 uM

Below are worked cases with known answers.
• CCCC(=O)Nc1ccc(-c2cn3cccc(C)c3n2)cc1 [O12] = 0.45% ± 0.05%,
• COC(=O)CCc1sc2c(c1[N+](=O)[O-])NC(=O)CCC2 [O20] = 0.73% ± 0.25%,
• CCc1ccccc1NC(=O)c1ccc([N+](=O)[O-])o1 [Gr-1C] = 3.51% ± 1.28%,
• COc1ccc(C(=O)/C=C/c2cccc(Cl)c2)c(OC)c1 [Gr-4C] = 0.47% ± 0.20%,
• O=C1NCCCc2cc(Cl)sc21 [O1] = 0.30% ± 0.13%,

Record Percentage of propidium iodide-positive dead cells (no H2O2 stress treatment), at 10 uM per entry; entries follow.
1. Oc1ccccc1-c1noc(-c2ccccc2O)n1 [O27]
2. O=C(/C=C/c1cn(-c2ccccc2)nc1-c1cccnc1)c1ccccc1 [Gr-6B]
3. Oc1ncnc2sc3c(c12)CCC3 [O14]
4. CC(C)(C)c1ccc(OCC(=O)Nc2ccc3c4c(cccc24)C(=O)NC3=O)cc1 [O22]
5. CCCN1C/C(=C\c2ccc(F)cc2)C(=O)/C(=C/c2ccc(F)cc2)C1 [O15]
6. O=C(Nc1cccc(C(F)(F)F)c1)c1ccc([N+](=O)[O-])o1 [Gr-1E]
7. CNC(=O)/C(C#N)=C/c1c(Oc2ccc(C(C)(C)C)cc2)nc2ccccn2c1=O [Gr-5D]

1. 0.50% ± 0.17%,
2. 0.46% ± 0.25%,
3. 0.41% ± 0.22%,
4. 0.37% ± 0.14%,
5. 3.76% ± 0.68%,
6. 0.71% ± 0.28%,
7. 0.51% ± 0.18%,

###

Please respond with reported pEC50 for every item in the list.
Tested on: WI-38 cells
Settings: read-out: Est. ED50; dose response 0.6-20 μM; H2O2-resistance
Answers are plain numbers, as −log10 of the molar value.

Illustrative cases are given below, each with its answer.
- CC1C(=O)C(C)C(c2cc(Cl)ccc2O)NC1c1cc(Cl)ccc1O (centres unmarked): 5.01
- O=C1NC(=O)c2cccc3cccc1c23: 5.26
- Nc1c(Cl)ncnc1NCCCn1ccnc1: 4.97
- O=C(Nc1cc(C(F)(F)F)ccc1Cl)c1ccc([N+](=O)[O-])o1: 5.58

Dear colleague, I am looking for the recorded pEC50 of the following compound: "O=C(CCCc1nnc2n3nc(-c4ccccc4)nc3c3ccccc3n12)N1CCOCC1"
4.70

###

Tested on: WI-38 cells
Conditions: WI-38 cells, no H2O2 stress, 10 uM, normalized ATP measurement
parameterMeasured: No H2O2 stress treatment, at 10 uM (fold change)
Answers are plain numbers, in fold change.

- O=[N+]([O-])c1ccccc1S(=O)(=O)Nc1cccc2cccnc12: 0.98
- Cc1cc(C)c(C(=O)/C=C/c2ccccc2F)c(O)n1: 0.99
- CCCN1C/C(=C\c2ccc(F)cc2)C(=O)/C(=C/c2ccc(F)cc2)C1: 0.98
- CCc1ccc(Oc2nc3ccccn3c(=O)c2/C=C(\C#N)C(=O)NCc2ccco2)cc1: 1.19
- CCCC(=O)Nc1ccc(-c2cn3cccc(C)c3n2)cc1: 1.01

// for each compound below, give its No H2O2 stress treatment, at 10 uM (fold change)
1. COc1ccc(C(=O)/C=C/c2ccccc2Br)c(OC)c1
2. O=C1NCCCc2cc(Cl)sc21

[1.18, 0.92]

###

Tested on: WI-38 cells
Experiment: CdCl2 (cadmium) resistance assay
Type: cell-based, human
Details: summary score
Method: For many stress conditions tested previously, one significant correlation to longevity is the cellular resistance to H2O2 or CdCl2. […] Isolated small molecules were tested for MMS and cadmium resistance twice in two independent assays. Each small molecule was analyzed at five different concentrations (0.25 μM to 20 μM final concentration), with technical triplicates for each dose. Data were analyzed using a global variance t-test.
parameterMeasured: A = Cadmium resistant
Answers are plain numbers.

Reference set, count: 5
• Cc1cc(C)c(C(=O)/C=C/c2ccccc2F)c(O)n1 = 1
• O=C(Nc1cccc(Cl)c1)c1ccc([N+](=O)[O-])o1 = 1
• COc1ccc(C(=O)/C=C/c2ccc(F)cc2)c(OC)c1 = 1
• Cc1cc(N)n(-c2ccccc2C(=O)O)n1 = 1
• O=C1NCCCc2cc(Cl)sc21 = 1

Hi! Can you tell me A = Cadmium resistant for each of these compounds?
1. O=C(/C=C/c1cn(-c2ccccc2)nc1-c1cccnc1)c1ccccc1
2. CCCC(=O)Nc1ccc(-c2cn3cccc(C)c3n2)cc1
3. COc1ccc(/C=C2\SC(=N)N(c3nccs3)C2=O)cc1

1. 1
2. 0
3. 0

Consider the following items and state reported A = Cadmium resistant for each.
1. O=C(Nc1nc(C23CC4CC(CC(C4)C2)C3)cs1)C(c1ccccc1)c1ccccc1
2. [O-][n+]1onc2c3nsnc3c(Br)cc21
3. O=C(NCc1cccnc1)/C(=C/c1ccc(-c2ccc(Cl)cc2)o1)S(=O)(=O)c1ccccc1

1
0
1

###

Tested on: NRF2
Test: qPCR analysis of NRF2-regulated genes
Assay type: cell-based, human
Details: Homo sapiens; WI-38 cells, 10 μM, 24 hrs, n=4, qPCR normalized by B2M; read-out: HMOX1 Normalized fold change
Classification field. Basis: fold induction at 10 µM. Definitions: lower bin = under 1, middle bin = from 1 up to 5, upper bin = 5 and over

- O=C(Nc1nc(C23CC4CC(CC(C4)C2)C3)cs1)C(c1ccccc1)c1ccccc1: lower bin
- O=C(Nc1cccc(Cl)c1)c1ccc([N+](=O)[O-])o1: middle bin
- [O-][n+]1onc2c3nsnc3c(Br)cc21: middle bin
- COc1ccc(C(=O)/C=C/c2ccc(F)cc2)c(OC)c1: upper bin
- O=C(/C(=C/c1ccc(Cl)cc1)c1nc2ccccc2[nH]1)c1ccccc1: middle bin
- O=C(Nc1ccc(Cl)c(Cl)c1)c1ccc([N+](=O)[O-])o1: lower bin
- CC(C)(C)c1ccc(OCC(=O)Nc2ccc3c4c(cccc24)C(=O)NC3=O)cc1: lower bin
- O=C(/C=C/c1cn(-c2ccccc2)nc1-c1cccnc1)c1ccccc1: middle bin
- COc1ccc(C(=O)/C=C/c2cccc(Cl)c2)c(OC)c1: upper bin
- CNC(=O)/C(C#N)=C/c1c(Oc2ccc(C(C)(C)C)cc2)nc2ccccn2c1=O: middle bin

// return the class label for "COc1ccc(C(=O)/C=C/c2ccccc2Br)c(OC)c1"
middle bin

// same read-out, input: "CCc1ccc(Oc2nc3ccccn3c(=O)c2/C=C(\C#N)C(=O)NCc2ccco2)cc1"
middle bin

Also check "COC(=O)CCc1sc2c(c1[N+](=O)[O-])NC(=O)CCC2"
lower bin

Can you check "COc1cccc(/C=C2\CN(C)C/C(=C\c3cccc(OC)c3OC)C2=O)c1OC" next?
upper bin

Further, for "O=C(c1ccc([N+](=O)[O-])o1)N1CCc2ccccc21" ?
upper bin
